Hi there, I'd appreciate the recorded IC50 for every entry that follows.
# target.under.test: MKNK1 (Homo sapiens, UniProt Q9BUB5, T385D)
# Construct: GST (N); purchased Carna Biosciences 02-145; host or cells: insect cells (baculovirus expression system)
# Sequence (Q9BUB5 1-424 isoform Q9BUB5-2 T344D): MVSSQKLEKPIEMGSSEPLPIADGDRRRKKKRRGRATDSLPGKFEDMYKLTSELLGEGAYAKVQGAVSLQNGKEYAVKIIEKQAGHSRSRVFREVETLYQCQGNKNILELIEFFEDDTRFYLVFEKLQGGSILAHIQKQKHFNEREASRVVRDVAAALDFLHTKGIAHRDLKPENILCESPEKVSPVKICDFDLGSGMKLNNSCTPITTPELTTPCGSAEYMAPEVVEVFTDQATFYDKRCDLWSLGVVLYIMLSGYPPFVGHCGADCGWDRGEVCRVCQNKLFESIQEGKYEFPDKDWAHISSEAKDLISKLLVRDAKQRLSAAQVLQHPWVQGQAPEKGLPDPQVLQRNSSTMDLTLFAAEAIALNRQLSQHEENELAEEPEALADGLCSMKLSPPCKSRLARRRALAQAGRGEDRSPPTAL
# assay.summary: MKNK1 kinase high ATP assay (TR-FRET-based)
# Format: biochemical
# settings: Table 2b; 2 mM ATP, 15 min preincubation
Answers are plain numbers, in nM.

{"compound": "C[C@@H]1COCCN1c1cccc2oc(-c3cnc4ccc(OC[C@@H](C)N)nn34)cc12 [II-37]", "target.under.test": "MKNK1 (Homo sapiens, UniProt Q9BUB5, T385D)", "unit.symbol": "nM", "IC50": 69.1}
{"compound": "COc1ccc2ncc(-c3cc4c(N5CCNC[C@H]5C)cccc4o3)n2n1 [II-44]", "target.under.test": "MKNK1 (Homo sapiens, UniProt Q9BUB5, T385D)", "unit.symbol": "nM", "IC50": 3.8}
{"compound": "C[C@H](N)COc1ccc2ncc(-c3cc4c(N5CCN(c6ccccc6)CC5)cccc4o3)n2n1 [II-15]", "target.under.test": "MKNK1 (Homo sapiens, UniProt Q9BUB5, T385D)", "unit.symbol": "nM", "IC50": 137}
{"compound": "COC[C@H]1CCCN1c1cccc2oc(-c3cnc4ccc(OC[C@H](C)N)nn34)cc12 [II-8]", "target.under.test": "MKNK1 (Homo sapiens, UniProt Q9BUB5, T385D)", "unit.symbol": "nM", "IC50": 2.7}
{"compound": "C[C@@H]1COCCN1c1cccc2oc(-c3cnc4ccc(O[C@H]5C[C@H](N)C5)nn34)cc12 [II-50]", "target.under.test": "MKNK1 (Homo sapiens, UniProt Q9BUB5, T385D)", "unit.symbol": "nM", "IC50": 50.6}

Would you be so kind as to report IC50 for each listed record?
1. CC1(C)CN(c2cccc3oc(-c4cnc5ccc(OC[C@@H]6CCC(=O)N6)nn45)cc23)CCN1 [II-36]
2. CC1(C)CN(c2cccc3oc(-c4cnc5ccc(OCCCS(C)(=O)=O)nn45)cc23)CCN1 [II-55]
3. C[C@@H]1CNCCN1c1cccc2oc(-c3cnc4ccc(OC[C@H]5CCC(=O)N5)nn34)cc12 [II-65]

1
1.4
1.3
